Test: M. tuberculosis growth inhibition, HTS (AID 449762);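 further: bacterial growth assessed after seven days of incubation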
Conditions: M. tuberculosis H37Rv growth inhibition, 7H9 media; at 25 µM; stronger effect = higher value
Screen size: about 330,000 compounds; about 1,900 (0.58%) were called active. About 4% were inconclusive and are not listed. A selection follows. Measured potencies and affinities stand elsewhere.
Observable: inhibition

[[record]]
compound = "CCc1ccc(C(=O)Nc2ccc3nc(C)ccc3c2)cc1"
result = "0.01% (inactive)"

[[record]]
compound = "CCOC(=O)N1CCN(Cc2ccc(O)c3ncccc23)CC1"
result = "55.4% (inactive)"

[[record]]
compound = "Cc1cc(C)n2nc(SCC(=O)NC(=O)c3ccccc3Cl)nc2n1"
result = "1.71% (inactive)"

[[record]]
compound = "CCOC(=O)c1ccc(NC(=O)CSc2nc(C)nc3c2c(=O)n(C)c(=O)n3C)cc1"
result = "-9.19% (inactive)"

[[record]]
compound = "CCOC(=O)c1[nH]c2ccc(F)cc2c1NC(=O)CN1CCc2cc(OC)c(OC)cc2C1"
result = "11.2% (inactive)"

[[record]]
compound = "O=C(NCCc1ccccc1)[C@@H]1CC=C[C@@H]2CCN(Cc3ccccc3)C(=O)[C@@H]21"
result = "1.96% (inactive)"

[[record]]
compound = "OCCN1CCN(Cc2cc(Cl)c3cccnc3c2O)CC1"
result = "6.31% (inactive)"

[[record]]
compound = "CCN(c1ccccc1)S(=O)(=O)c1cccc(C(=O)Nc2ccc(C)cn2)c1"
result = "-11.7% (inactive)"

[[record]]
compound = "COc1ccccc1N1CCN(c2ccc(Cl)nn2)CC1"
result = "0.36% (inactive)"

[[record]]
compound = "Cc1ccccc1N1CCN(C(=O)C2CCC(=O)N(C3CCCC3)C2)CC1 (configuration not stated)"
result = "2.89% (inactive)"

[[record]]
compound = "CC[C@H](C)[C@@H](CN[C@H](CCCCNC)CNC)NCC1CCCC1"
result = "4.48% (inactive)"

[[record]]
compound = "CCOC(=O)c1ccc(NC(C)=O)c([N+](=O)[O-])c1"
result = "-9.36% (inactive)"

[[record]]
compound = "c1ccc(CNc2ncnc3c2cnn3-c2ccccc2)cc1"
result = "-6.95% (inactive)"

[[record]]
compound = "Cc1ccc(CNC(=O)COC(=O)c2cc(=O)[nH]c3ccccc23)cc1"
result = "6.93% (inactive)"

[[record]]
compound = "CCN1CCN(c2nc(C)c3c(n2)CC(C)CC3=O)CC1 (configuration not stated)"
result = "11.3% (inactive)"

[[record]]
compound = "CC(C)NCC(O)COC1CCC(C(C)(C)C)CC1 (configuration not stated)"
result = "-7.84% (inactive)"

[[record]]
compound = "CC1=C(c2ccc(F)cc2)[N+](=O)C(C)(C)N1[O-]"
result = "-6.06% (inactive)"

[[record]]
compound = "CCCNc1ccc(C(=O)OCC)cc1[N+](=O)[O-]"
result = "-11.2% (inactive)"

[[record]]
compound = "COc1ccc(C[C@H]2CN3C(=NC[C@@H]3C)N2CCNC(=O)CCC2CCCCC2)cc1"
result = "-0.84% (inactive)"

[[record]]
compound = "CC1(c2ccc(OC(F)F)cc2)NC(=O)N(CC(=O)Nc2ccc3c(c2)OCO3)C1=O (configuration not stated)"
result = "1.98% (inactive)"

[[record]]
compound = "Nc1cc(C(=O)OCC(=O)NNC(=O)c2ccccc2)ccc1Cl"
result = "35.4% (inactive)"

[[record]]
compound = "COc1ccccc1NC(=O)CN1CCN(CC(=O)Nc2ccc(OC)c(OC)c2)CC1"
result = "-1.32% (inactive)"


---

Assay: M. tuberculosis growth inhibition, HTS (AID 449762);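 further: bacterial growth assessed after seven days of incubation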
Settings: M. tuberculosis H37Rv growth inhibition, 7H9 media; at 25 µM; stronger effect = higher value
The whole screen tested about 330,000 compounds, of which about 1,900 (0.58%) were called active. Not shown: some 4% with an inconclusive outcome. These entries were drawn from the full list. Entries with a potency or affinity are not part of this list.
Measured inhibition accompanies every entry in the list below.
Observable: inhibition (%)

[[record]]
compound = "S=C(NCCc1ccccc1)N1CCN(C23CC4CC(CC(C4)C2)C3)CC1"
number = 7.41

[[record]]
compound = "C[C@H](CO)N1C[C@H](C)[C@@H](CN(C)S(=O)(=O)c2cccs2)Oc2ccc(NC(=O)Nc3ccccc3)cc2C1=O"
number = -4.72

[[record]]
compound = "CCN(CC)CC1C(=O)N(c2ccc(OC)cc2)C1c1ccccc1 (centres undefined)"
number = -4.16

[[record]]
compound = "COc1ccc(NC(=O)Nc2ccc3c(c2)C(=O)N([C@H](C)CO)C[C@H](C)[C@@H](CN(C)S(=O)(=O)c2cccs2)O3)cc1"
number = 2.72


---

Experiment: M. tuberculosis growth inhibition, HTS (AID 449762);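 further: bacterial growth assessed after seven days of incubation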
Details: M. tuberculosis H37Rv growth inhibition, 7H9 media; at 25 µM; stronger effect = higher value
Among all 330,000 compounds or so, about 1,900 (0.58%) were called active. Another 4% or so got no clear call; they are omitted. Not all results are given here. Measured potencies and affinities stand elsewhere.
Observable: inhibition (%)

[[record]]
molecule = "O=C(N/N=C/c1c[nH]c2ccccc12)c1sc2ccccc2c1Cl"
number = 1.35

[[record]]
molecule = "Nc1nc(CN2CCN(c3cccc(Cl)c3)CC2)nc(N2CCCc3ccccc32)n1"
number = 34.9

[[record]]
molecule = "CC(OC(=O)COc1ccccc1Cc1ccccc1)C(=O)N(C)c1ccccc1 (stereo unspecified)"
number = -4.05

[[record]]
molecule = "CC(=O)Nc1ccc(NC(=O)C(C)OC(=O)COc2ccc(Nc3ccccc3)cc2)cc1 (stereo unspecified)"
number = 40.1

[[record]]
molecule = "Cc1cc(C(=O)COC(=O)COc2ccc(C#N)cc2)c(C)n1C1CC1"
number = 3.67

[[record]]
molecule = "O=C(N/N=C/c1cccnc1)c1sc2ccccc2c1Cl"
number = 66


---

Assay: M. tuberculosis growth inhibition, HTS (AID 449762);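 further: bacterial growth assessed after seven days of incubation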
Conditions: M. tuberculosis H37Rv growth inhibition, 7H9 media; at 25 µM; stronger effect = higher value
About 1,900 (0.58%) of roughly 330,000 compounds were called active. Roughly 4% stayed inconclusive and do not appear here. The list is a sample of the results. Entries with a potency or affinity are not part of this list.
Measured inhibition accompanies every entry in the list below.
Observable: inhibition (%)

[[record]]
smiles_string = "COc1ccc(OC)c2[nH]c(=O)c(CCNC(=O)c3ccc(Br)o3)cc12"
units = "%"
number = -4.84

[[record]]
smiles_string = "Cn1nc(-c2ccc(OCC(N)=O)cc2)c2ccccc2c1=O"
units = "%"
number = -19.8

[[record]]
smiles_string = "CC(=O)NCCc1nc2cc(NC(=O)c3ccccc3Cl)ccc2n1C"
units = "%"
number = -3.12

[[record]]
smiles_string = "COC(=O)c1ccc2c(=O)[nH]c(CSc3nc(-c4ccc(F)cc4)cs3)nc2c1"
units = "%"
number = -1.24

[[record]]
smiles_string = "O=C(NNS(=O)(=O)c1ccccc1[N+](=O)[O-])c1ccccc1[N+](=O)[O-]"
units = "%"
number = -1.87

[[record]]
smiles_string = "CCCc1nn2c(=O)c(C(c3cccc(Cl)c3)c3c(O)nc4sc(CCC)nn4c3=O)c(O)nc2s1"
units = "%"
number = -6.75

[[record]]
smiles_string = "Cc1nc(-c2c(C(=O)NNC(=O)Nc3c(C)cccc3C)noc2C)cs1"
units = "%"
number = -5.09

[[record]]
smiles_string = "CCc1nc(SCC(=O)Nc2ccnc3ccccc23)n[nH]1"
units = "%"
number = -7.48

[[record]]
smiles_string = "CNC(=O)COc1ccc(-c2nn(C)c(=O)c3ccccc23)cc1"
units = "%"
number = -7.66

[[record]]
smiles_string = "CN(C)CCCNC(=S)N(CCN(C)C)Cc1cc2cc3c(cc2[nH]c1=O)OCCO3"
units = "%"
number = -2.66


---

Test: M. tuberculosis growth inhibition, HTS (AID 449762);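 further: bacterial growth assessed after seven days of incubation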
Conditions: M. tuberculosis H37Rv growth inhibition, 7H9 media; at 25 µM; stronger effect = higher value
Screen size: about 330,000 compounds; about 1,900 (0.58%) were called active. Not shown: some 4% with an inconclusive outcome. A selection follows. Results with a measured potency or affinity are listed apart.
Observable: inhibition (%)

[[record]]
molecule = "CN(C)CCCN1c2ccc([N+](=O)[O-])cc2CCc2cc([N+](=O)[O-])ccc21"
observable = "inhibition"
units = "%"
number = -1.94

[[record]]
molecule = "COc1ccc(C)cc1NC(=O)CCN1CCN(c2ccccc2)CC1"
observable = "inhibition"
units = "%"
number = 5.54

[[record]]
molecule = "COC(=O)c1ccc(CSc2nnc(CNC(=O)c3ccccc3F)o2)o1"
observable = "inhibition"
units = "%"
number = 4.26

[[record]]
molecule = "CC(C(c1cccs1)c1c(N)n(C)c(=O)n(C)c1=O)[N+](=O)[O-] (configuration not stated)"
observable = "inhibition"
units = "%"
number = -8.45

[[record]]
molecule = "COc1cccc(NC(=O)Nc2ccc(Br)cn2)c1"
observable = "inhibition"
units = "%"
number = 4.97

[[record]]
molecule = "COc1ccccc1NC(=S)N(Cc1ccc(C(=O)O)cc1)Cc1ccc(OC)c(OC)c1"
observable = "inhibition"
units = "%"
number = 1.31

[[record]]
molecule = "COc1cc2[nH]c(C(=O)NCCc3ccccc3)cc2c(OC)c1OC"
observable = "inhibition"
units = "%"
number = 0.36

[[record]]
molecule = "COCCNC(=O)c1noc2c1CCc1cc(OC)ccc1-2"
observable = "inhibition"
units = "%"
number = 3.34

[[record]]
molecule = "O=c1[nH]c2ccccc2nc1Cc1ccc([N+](=O)[O-])cc1"
observable = "inhibition"
units = "%"
number = 1.98

[[record]]
molecule = "O=C(NCc1nnc(SCC(=O)N2CCCC2)o1)c1ccc(F)cc1"
observable = "inhibition"
units = "%"
number = -1.8

[[record]]
molecule = "C=CCn1cnc2c(nnn2-c2cc(C)cc(C)c2)c1=O"
observable = "inhibition"
units = "%"
number = 7.46

[[record]]
molecule = "COc1ccc(CCC(=O)OC(C)C(=O)c2ccc(C)cc2)cc1 (configuration not stated)"
observable = "inhibition"
units = "%"
number = -2.54

[[record]]
molecule = "COc1ccccc1N1CCN(c2nnc(-c3ccc(F)cc3)c3ccccc23)CC1"
observable = "inhibition"
units = "%"
number = -0.63

[[record]]
molecule = "Cc1ccc(OCC(=O)NC(C)c2ccc(Cl)c(Cl)c2)c([N+](=O)[O-])n1 (configuration not stated)"
observable = "inhibition"
units = "%"
number = -3.43

[[record]]
molecule = "Cc1ccc(-c2c(C#N)c(N)nc3c2CCCCCC3)o1"
observable = "inhibition"
units = "%"
number = 21.5

[[record]]
molecule = "CCCN(CC(=O)Nc1ccccc1OC)C(=O)CCC(=O)c1ccc(OCC)cc1"
observable = "inhibition"
units = "%"
number = 3.5

[[record]]
molecule = "C/C(Sc1nnc(Cc2ccccc2)o1)=C(/O)c1ccccc1"
observable = "inhibition"
units = "%"
number = -0.32

[[record]]
molecule = "Cc1nn(CC(=O)Nc2c(C)n(C)n(-c3ccccc3)c2=O)c(C)c1[N+](=O)[O-]"
observable = "inhibition"
units = "%"
number = -2.07

[[record]]
molecule = "Cc1ccc(NC(=O)c2cccc(-n3cnnn3)c2)cc1Cl"
observable = "inhibition"
units = "%"
number = 4.03

[[record]]
molecule = "COc1cccc(-c2nnc3sc(C4CCCCC4)nn23)c1"
observable = "inhibition"
units = "%"
number = 66.4

[[record]]
molecule = "CC(=O)Nc1ccc(NS(=O)(=O)c2ccc(-c3cnc(C4CC4)o3)cc2)cc1"
observable = "inhibition"
units = "%"
number = -1.71

[[record]]
molecule = "COc1ccccc1C(c1c(N)n(C)c(=O)n(C)c1=O)C(C)[N+](=O)[O-] (configuration not stated)"
observable = "inhibition"
units = "%"
number = 43.9


The values you see were collected from PubChem BioAssay AID449762.
